Cell growth inhibiting test on Raji cells, Absorption (492 nm) for assorted binders
Biological target: T1, human CD20 antigen (human, UniProt P11836 1-297); also: test concentration or dose not given here
T1 sequence (looked up): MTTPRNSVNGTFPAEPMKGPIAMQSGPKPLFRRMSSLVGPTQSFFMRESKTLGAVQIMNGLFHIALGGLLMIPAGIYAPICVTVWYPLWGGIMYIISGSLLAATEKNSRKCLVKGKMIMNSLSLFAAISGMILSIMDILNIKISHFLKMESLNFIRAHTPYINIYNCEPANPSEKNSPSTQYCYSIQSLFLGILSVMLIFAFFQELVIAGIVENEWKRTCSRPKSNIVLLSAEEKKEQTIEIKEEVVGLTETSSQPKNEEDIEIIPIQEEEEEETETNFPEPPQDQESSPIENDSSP
Experiment: cell-based or functional assay
State the answer as a number, implicitly in absorbance 492 nm.

binder	endpoint_result
1K1736 murine anti CD20 monoclonal antibody (antibody, V domains shown) VH: QVQLQQPGAELVKPGASVKMSCKASGYTFTTYNLHWVKQTPGQGLEWIGGIYPGNGDTSYNQKFKVKATLTADKSSNTAYMQLSSLTSEDSAVYYCARWIYYGNYEGTLDYWGQGTSVTVSS VL: QIVLSQSPAILSSSPGEKVTMTCRASSSVSYMLWYQQKPGSSPEPWIYATSNLASGVPARFSGGGSGTSYSLTISRVEAEDAATYYCQQWTFNPPTFGGGTKLEIK	2.24
1K1782 murine anti CD20 monoclonal antibody (antibody, V domains shown, also called m1782) VH: QVQLQQSGAELAKPGASVKMSCKASGYTFTSYWMHWVKQRPGQGLEWIGYITPSTGYTDYNKKFKDKATLTADRSSSTAYMHLSSLTSEDSAVYYCARSGPYFDVWGAGTTVTVSS VL: DILLTQSPAILFVSPGERVSLSCRASQNIGTSIHWYQQRTNGSPRLLIKYASESFSGIPSRFSGSGSGTDFTLSINSVESEDIADYYCQQSNSWPFTFGSGTKLEIK	2.6
1K1791 murine anti CD20 monoclonal antibody (antibody, V domains shown, also called m1791) VH: QIQLVQSGPELKKPGETVKISCKASGYTFTNFGVNWVKQAPGKGLKWMGWINTYTGEPSYADDFKGRFAFSLEASANTAYLQINNLKNDDMSTYFCTRRTNYYGTSYYYAMDYWGQGTSVTVSS VL: STVMTQTPKFLLVSAGDRVTITCKASQSVSNDVAWYQQKPGQSPKVLIYFASNRYTGVPDRFTGSGYGTDFTFTINTVQAEDLAVYFCQQDYSSPLTFGAGTKLELK	1.79
1K1712 murine anti CD20 monoclonal antibody (antibody, V domains shown, also called m1712) VH: QVQLQQPGAELVKPGASVKMSCKASGFTFTSYNLHWVKQTPGQGLEWIGAIYPGSGDTSYNQQFKGKATLTADKSSNTAYMQLNSLTSEDSAVYCCARSAMISTGNWYFDYWGQGTTLTVSS VL: QIVLSQSPAILSASPGEKVTMTCRASSSVSYMDWYQQKPGSSPKPWIYATSNLASGVPARFSGSGSGTSYSLTISRVEAEDTATYYCQQWTFNPPTFGSGTKLEIK	2.33
1K1402 murine anti CD20 monoclonal antibody (antibody, V domains shown, also called m1402) VH: QVQLQQPGAELVKPGASVKMSCKASGFTFTSYNMHWVKQTPGQGLEWIGGIYPGNGDTSYNQKFKGKATLTADKSSSTAYMQLSSLTSEDSAVYYCARFYYYGSMGAMDYWGQGTSVTVSS VL: QIVLSQSPAILSASPGEKVTMTCRASSSVSYMHWYQQKPGSSPKPWIYATSNLASGVPARFSGSGSGTSYSLTITRVEAEDAATYYCQQWTFNPPTFGAGTKLELK	2.54

(Q) Record request: Cell growth inhibiting test on Raji cells, Absorption (492 nm) value, item 1K1422 murine anti CD20 monoclonal antibody (antibody, V domains shown, also called m1422) VH: QVQLQQPGAELVKPGASVKMSCRASGYTFTNYNMHWIKQTPGQGLEWIGAIYPGSGDTSYNRKFKGKATLTADTSSSTAYMQFSSLTSADSAVYYCARFTYYYGGTYGAMDYWGQGTSVTVSL VL: QIVLTQSPPIMSASLGEEITLTCSASSRVSYMLWYQQKSGTSPKLLIYSTSNLASGVPSRFSGSGSGTFYSLTISSVEAEDAADYYCHQWTSNPCTFGGGTKLEIK
(A) 1.77
